Every entry's value here was drawn from patent US20240317712A1.

# Target of assay: QPCTL (Homo sapiens, UniProt Q9NXS2)
# Sequence (Q9NXS2 whole entry): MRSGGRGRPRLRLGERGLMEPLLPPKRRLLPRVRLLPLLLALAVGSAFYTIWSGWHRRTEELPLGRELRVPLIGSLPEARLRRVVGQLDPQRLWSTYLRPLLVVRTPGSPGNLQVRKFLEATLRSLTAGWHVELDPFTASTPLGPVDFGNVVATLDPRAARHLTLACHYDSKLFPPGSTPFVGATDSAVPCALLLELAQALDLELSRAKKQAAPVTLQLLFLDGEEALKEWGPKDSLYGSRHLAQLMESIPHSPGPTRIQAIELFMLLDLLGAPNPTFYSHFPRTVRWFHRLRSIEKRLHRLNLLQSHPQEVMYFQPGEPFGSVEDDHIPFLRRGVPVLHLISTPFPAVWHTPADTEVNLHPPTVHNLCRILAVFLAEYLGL
pIC50: −log10 of the molar value.
Observation type: pIC50

Examples with answers:
Cn1cnnc1C1(F)CCN(c2c(C#N)cc(C(F)(F)F)cc2-c2ccc(F)nc2)CC1 : 8.70
Cn1cnnc1C1CCN(c2c(C#N)ccc(OCc3ccccc3)c2-c2ccc(F)nc2)CC1 : 9.00
Cn1cnnc1C1CCN(c2c(C#N)cc(F)cc2-c2ccc(F)nc2)CC1 : 8.70
Cn1cnnc1C1(F)CCN(c2c(C#N)cc(C(F)(F)F)cc2-c2cnc3nn(C(C)(C)C)cc3c2)CC1 : 9.00
COc1ccc(C#N)c(N2CCC(c3nncn3C)CC2)c1-c1ccc(F)nc1 : 9.00

[1] Cn1cnnc1C1(F)CCN(c2c(C#N)cc(Cl)cc2-c2ccc(F)nc2)CC1
[2] Cn1cnnc1C1(F)CCN(c2c(-c3cnc4nn(C(C)(C)C)cc4c3)ccc(Cl)c2C#N)CC1
[3] Nc1nnc(C2CCN(c3ncccc3-c3ccc(F)nc3)CC2)s1 [Prior art Compound 1095, reference compound]
stdin: Would you mind ranking these molecules by ascending pIC50? Returns: the labels listed in the requested order.
stdout: 3, 1, 2
